Where do the numbers come from? From the supplement of paper PMC10065799.

Biological target: c-Src SH2;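 note: peptide library displayed on the E. coli surface as eCPX fusions, selected cells deep-sequenced, score is each peptide's frequency after selection divided by its frequency in the input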
Test: SH2 binding enrichment of the phosphorylated peptide, bacterial display (enrichment ratio); higher = better substrate or ligand; peptides without Tyr show the background
readout_type: SH2 binding enrichment
Form field (numeric): enter value without unit.

*Q* Find the recorded SH2 binding enrichment belonging to GRFSGYKSKHG [EPHA3_Y570_C568S] and report it.
*A* 0.92

*Q* Subsequent entry: LARHMYDKEYY [MET_Y1230_D1228H]
*A* 1.15

*Q* And the next one, GDEAIYATVAG [NRTKtide_2018] ?
*A* 0.612

*Q* Then what about the sequence GFQPEYGQPAG [SYP_Y278_D277E_YF] ?
*A* 0.405

*Q* Here is the next sequence: DKVFTYIFIME [SCN4A_Y1074]
*A* 0.469

*Q* Try the sequence GPIEVYLCPEE [E2F3_Y349]
*A* 0.541

*Q* For EFENSCIFDIN [GAB1_Y83_Y83C] then?
*A* 0.786

*Q* Now give it for RGKLFYQEVPA [METTL11B_Y76_A72G] too.
*A* 1.11

*Q* Subsequent entry: PATYTYDEYKK [COL8A2_Y648]
*A* 1.48

*Q* Next: DWLRRYLENGK [HLA-A_Y195_E190D]
*A* 0.211

*Q* Same read-out for SIKHKYVTALF [KCNH2_Y611_D609H_YF] ?
*A* 0.473

*Q* What about CEHRGYLYLAI [TEK_Y897] ?
*A* 0.741

*Q* # iterate: VQVAYYTVMMN [SPATA17_Y84_M86V]
*A* 1.93

*Q* Do the same for LSPPVYLTNEW [NRK_Y885_I880L] please
*A* 0.58

*Q* For FGDTPYIPFRD [CDC14C_Y132] then?
*A* 0.602

*Q* What do we get for KILGRYFETGS [PAX2_Y72_YF] ?
*A* 0.438

*Q* Could you do the same for LTERGYSFTTK [ACTG1_Y198_T203K] , please?
*A* 0.454

*Q* Ok, now QLCVSYPGGFT [PROS1_Y259_N258S_YF]
*A* 0.535

*Q* Same again, this time with IGKAGYTDKMV [ENO1_Y236_V240M]
*A* 0.513

*Q* // repeat for QADVIYVNTQL [MERTK_Y872] and report
*A* 0.608

*Q* Try the sequence PVRIAYDRPRG [SUGP2_Y985]
*A* 0.623

*Q* And then HNLYSYPTKHE [MYO3A_Y1396] , what is it?
*A* 1.8
